TEST TARGET: T1, HLA-B*08 (human)
T1 construct: MHC monomer made peptide-receptive by UV cleavage of a UV-sensitive ligand; also called peptide-receptive MHC class I monomer
PROCEDURE DETAILS: UV peptide-exchange ELISA; ++++ = yield >75%

- BINDER: "LPPKKFVL [LPPKKFVL (SEQ ID NO: 310)]"
  peptide exchange yield: "> 75%"
- BINDER: "ALKLRVAVL [ALKLRVAVL (SEQ ID NO: 305)]"
  peptide exchange yield: "> 75%"
- BINDER: "LPFPKFTV [LPFPKFTV (SEQ ID NO: 303)]"
  peptide exchange yield: "> 75%"
- BINDER: "EAAIRSVEL [EAAIRSVEL (SEQ ID NO: 318)]"
  peptide exchange yield: "> 75%"
- BINDER: "EAMLRNKEL [EAMLRNKEL (SEQ ID NO: 312)]"
  peptide exchange yield: "> 75%"
- BINDER: "LVKVKVLL [LVKVKVLL (SEQ ID NO: 317)]"
  peptide exchange yield: "> 75%"
